Biological target: Mcl-1
Assay: Binding of synthetic peptide to target protein by surface plasmon resonance (SPR, Biacore T200)
Conditions: immobilized Mcl-1, Table 53 (peptides from mRNA display), read-out: Binding evaluation result (KD)
pKd: −log10 of the molar value.
RECORDED ENDPOINT: pKd

Example cases with answers are listed next.
CC(C)C[C@@H]1NC(=O)[C@H](CC(=O)O)NC(=O)[C@H](CCC(N)=O)NC(=O)[C@H](CC(=O)O)NC(=O)[C@H](CCCCN)NC(=O)[C@H](Cc2ccc(O)cc2)NC(=O)[C@H](CC(=O)O)NC(=O)[C@H](Cc2ccc(O)cc2)NC(=O)[C@H](CCC(=O)O)NC(=O)[C@H](Cc2ccccc2)NC(=O)[C@H](C)NC(=O)CNC(=O)[C@H](C)NC(=O)[C@@H]2CSC(=N2)c2cc(cs2)C[C@H](C(N)=O)NC1=O [a-6-2] = ≤ 4.30
CC[C@H](C)[C@@H]1NC(=O)[C@H](CO)NC(=O)[C@H](CO)NC(=O)[C@H](CC(C)C)NC(=O)[C@H]([C@@H](C)O)NC(=O)[C@H]([C@@H](C)O)NC(=O)[C@@H]2CSC(=N2)c2cc(cs2)C[C@@H](C(N)=O)NC(=O)[C@H](CCCNC(=N)N)NC(=O)[C@H](CCCNC(=N)N)NC(=O)[C@H](CC(=O)O)NC(=O)[C@H](C(C)C)NC(=O)[C@H](CCC(N)=O)NC(=O)[C@H](CC(=O)O)NC(=O)CNC1=O [a-6-5] = > 4.30
CC[C@H](C)[C@@H]1NC(=O)[C@H](CC(=O)O)NC(=O)[C@@H]2CSC(=N2)c2cc(cs2)CC(C(N)=O)NC(=O)[C@H](CCCNC(=N)N)NC(=O)[C@H](CC(=O)O)NC(=O)CNC(=O)[C@H](CC(=O)O)NC(=O)[C@H](CCCCN)NC(=O)[C@H](Cc2ccc(O)cc2)NC(=O)[C@H](CC(=O)O)NC(=O)[C@H](Cc2ccc(O)cc2)NC(=O)[C@H](C(C)C)NC(=O)CNC(=O)[C@H](C(C)C)NC1=O (stereo partly shown) [a-6-3] = ≤ 4.30

Let's switch to this compound now.
CC[C@H](C)[C@@H]1NC(=O)[C@H](CCC(N)=O)NC(=O)[C@H](CCCNC(=N)N)NC(=O)[C@H](CC(C)C)NC(=O)CNC(=O)[C@H](CC(=O)O)NC(=O)[C@H](C(C)C)NC(=O)[C@H](C(C)C)NC(=O)[C@H](CC(N)=O)NC(=O)[C@@H]2CCCN2C(=O)[C@@H]2CSC(=N2)c2cc(cs2)CC(C(N)=O)NC(=O)[C@H]([C@@H](C)O)NC(=O)[C@H](CC(=O)O)NC(=O)CNC1=O (stereo partly shown) [a-6-6] on Mcl-1 gives pKd = > 4.30

---

Target: Mcl-1
Assay: Binding of synthetic peptide to target protein by surface plasmon resonance (SPR, Biacore T200)
Settings: immobilized Mcl-1, Table 53 (peptides from mRNA display), read-out: Binding evaluation result (KD)
RECORDED ENDPOINT: Kd

CC[C@H](C)[C@@H]1NC(=O)[C@H](CO)NC(=O)[C@H](CCCNC(=N)N)NC(=O)[C@H](CC(C)C)NC(=O)[C@H]([C@@H](C)O)NC(=O)[C@H](CO)NC(=O)[C@H](C)NC(=O)[C@H]([C@@H](C)O)NC(=O)[C@H](CCC(=O)O)NC(=O)[C@H](CCC(=O)O)NC(=O)[C@@H]2CSC(=N2)c2cc(cs2)C[C@@H](C(N)=O)NC(=O)[C@H](CO)NC(=O)[C@H](CC(=O)O)NC(=O)CNC1=O = < 50 µM
CC(C)C[C@@H]1NC(=O)[C@@H]2CCCN2C(=O)[C@H](Cc2c[nH]c3ccccc23)NC(=O)[C@H](Cc2ccccc2)NC(=O)[C@H]([C@H](C)O)NC(=O)[C@@H]2CCCN2C(=O)[C@H](CC(=O)O)NC(=O)[C@H](CS)NC(=O)[C@H](Cc2ccc(O)cc2)NC(=O)[C@H](CCC(=O)O)NC(=O)[C@@H]2CSC(=N2)c2cc(cs2)C[C@@H](C(N)=O)NC(=O)[C@H](CCCNC(=N)N)NC(=O)[C@H](CCCNC(=N)N)NC(=O)[C@H](Cc2ccccc2)NC1=O = < 50 µM

Let's switch to this molecule now.
The molecule listed as "CC(C)C[C@H](NC(=O)[C@H](CC(=O)O)NC(=O)[C@H](CCCCN)NC(=O)[C@@H](NC(=O)[C@H](C)NC(=O)[C@H](C)NC(=O)[C@H]1Cc2csc(c2)C2=N[C@@H](CS2)C(=O)N[C@@H](CC(=O)O)C(=O)N[C@@H](CO)C(=O)N[C@@H](Cc2ccc(O)cc2)C(=O)N1)C(C)C)C(=O)N[C@@H](CCC(=O)O)C(=O)N[C@@H](CC(N)=O)C(=O)N[C@@H](C)C(=O)N[C@@H](Cc1csc(C#N)c1)C(N)=O" shows Kd equal to < 50 µM

Recorded values, source patent US11319347B2.
